The reported numbers originate from patent US5041579A.

Tested on: Colon 38 cells
assay procedure: Anti-tumor activity testing 4: tumor-growth inhibition of subcutaneous Colon 38, intravenous injection
Format: in vivo, Female BDF mice
assay context: 8 mg/kg × 6, i.v.; 21 days after transplantation
recorded endpoint: Tumor-growth Inhibition Rate (%)
Answer in %, number only, no unit symbol.

1) NC1CCCC(O)C1N.O=S1(=O)[O][Pt][O]1 (single isomer, unassigned; (-)) [Compound No. 9]	88
2) NC1CCCC(O)C1N.O=S1(=O)[O][Pt][O]1 (single isomer, unassigned; (+)) [Compound No. 8]	61

// recorded Tumor-growth Inhibition Rate for NC1CCCC(O)C1N.O=S(=O)([O-])[O-].[Pt+2] (stereo not shown) : 90

* * *

Test system: Colon 38 cells
assay procedure: Anti-tumor activity testing 4: tumor-growth inhibition of subcutaneous Colon 38, intravenous injection
Assay type: in vivo, Female BDF mice
assay context: 2 mg/kg × 6, i.v.; 21 days after transplantation
We begin with a simple list: items and their reported Tumor-growth Inhibition Rate.
# output: bare number, implied unit %

Sample answers from the record:
1) NC1CCCC(O)C1N.O=S1(=O)[O][Pt][O]1 (single isomer, unassigned; (-)) [Compound No. 9]	40
2) NC1CCCC(O)C1N.O=S1(=O)[O][Pt][O]1 (single isomer, unassigned; (+)) [Compound No. 8]	34
3) NC1CCCC(O)C1N.O=S(=O)([O-])[O-].[Pt+2] (stereo not shown)	22

Please look at the following compound next.
Summary for this compound, N.N.[Cl][Pt][Cl] [Cisplatin, cis-dichlorodiamineplatinum(II), reference compound] : Tumor-growth Inhibition Rate is 58

* * *

Quick reference for pIC50 among some molecules
Tested on: cisplatin-resistant L1210 cells
assay procedure: Growth inhibition of cisplatin-resistant L1210 cells ([3H]-thymidine uptake)
Assay type: cell-based, mouse
assay context: 46 h incubation plus 2 h with [3H]-thymidine, 37° C.
Answer as the number alone; pIC50 is minus log10 of concentration in mol/L.

// solved cases for pIC50 follow
1) NC1CCCC(O)C1N.O=S(=O)([O-])[O-].[Pt+2] (stereo not drawn) [Compound No. 2]	5.49
2) N.N.[Cl][Pt][Cl] [Cisplatin, cis-dichlorodiamineplatinum(II), reference compound]	4.98
3) O=S1(=O)[O][Pt]2([NH]C3CCCC(C3)[NH]2)[O]1 [Compound No. 5]	5.10

Looking up O=C1C[O][Pt]2([NH]C3CCCC(O)C3[NH]2)[O]1 (stereo not drawn) [Compound No. 3] , I found its pIC50 recorded as 5.60

NC1CCCC(N)C1.O=C1[O][Pt][O]C1=O (stereo not drawn) [Compound No. 4] yielded pIC50 of 5.30

Note to self: pIC50 recorded for O=C1[O][Pt]2([NH]C3CCCC(O)C3[NH]2)[O]C1=O (stereo not drawn) [Compound No. 1] was 5.18

* * *

Test system: L1210 cells
assay procedure: Growth inhibition of L1210 cells ([3H]-thymidine uptake)
Format: cell-based, mouse
assay context: 46 h incubation plus 2 h with [3H]-thymidine, 37° C.
recorded endpoint: pIC50
Keep in mind that pIC50 stands for -log10 of concentration in molar terms.

Example entries begin here.
1) O=S1(=O)[O][Pt]2([NH]C3CCCC(C3)[NH]2)[O]1	5.51
2) N.N.[Cl][Pt][Cl] [Cisplatin, cis-dichlorodiamineplatinum(II), reference compound]	6.00
3) NC1CCCC(N)C1.O=C1[O][Pt][O]C1=O (stereo not drawn)	5.62
4) NC1CCCC(O)C1N.O=S(=O)([O-])[O-].[Pt+2] (stereo not drawn)	5.77
5) O=C1C[O][Pt]2([NH]C3CCCC(O)C3[NH]2)[O]1 (stereo not drawn)	5.89

pIC50 in this record for O=C1[O][Pt]2([NH]C3CCCC(O)C3[NH]2)[O]C1=O (stereo not drawn) : 5.46

* * *

Test system: cisplatin-resistant L1210 cells
assay procedure: Growth inhibition of cisplatin-resistant L1210 cells ([3H]-thymidine uptake)
Type: cell-based, mouse
assay context: ratio of IC50 for cisplatin-resistant L1210 cells to that for L1210 cells; 2880 min
Readings of Degree of Resistance for the listed compounds
I'd appreciate a reply containing only the number, no unit.

Record excerpt, results attached:
1) O=C1C[O][Pt]2([NH]C3CCCC(O)C3[NH]2)[O]1 (stereo not drawn)	1.9
2) N.N.[Cl][Pt][Cl] [Cisplatin, cis-dichlorodiamineplatinum(II), reference compound]	10.5
3) NC1CCCC(N)C1.O=C1[O][Pt][O]C1=O (stereo not drawn)	2.1
4) O=C1[O][Pt]2([NH]C3CCCC(O)C3[NH]2)[O]C1=O (stereo not drawn)	1.9
5) O=S1(=O)[O][Pt]2([NH]C3CCCC(C3)[NH]2)[O]1	2.5

Please turn your attention to the following entry.
Value of measured Degree of Resistance for the entry NC1CCCC(O)C1N.O=S(=O)([O-])[O-].[Pt+2] (stereo not drawn) : 1.9
